Ref: the supplement of paper PMC9170038

# Tested on: MS2 coat protein
# protocol.text: apparent KD of MS2 coat protein; designed switch direction (-1 OFF switch, 1 ON switch): -1; higher = weaker reporter binding
# run.parameters: Eterna round: R95; input ligand: microRNA oligo, concentration not stated
Lab note: class by apparent KD of MS2 coat protein, see label 0: < 30 nM; label 1: ≥ 30 nM and < 100 nM; label 2: ≥ 100 nM

Sort GGGCGGCGGACCGUGGCUUUUUGCUCGUCUUGUGCUUCGACAUGAGGAUCACCCAUGUGGUGGUGGUCCGUUGUGGG [Grok-var2-14 mod JAL] (puzzle: Sensor v3, turn-off variant 2) into one of the categories.
label 0

Would you mind doing AAAGAAGAGAGAAAAUAACACAUGAGGAUCACCCAUGUGAGAAGUUGAGGGUGAUACAGGCUUUUUGCUCGUCUUAU (puzzle: Sensor v3, turn-off variant 1) as well?
label 2

Would you mind doing CUCCUCAUGACGCCUAAACACAUGAGGAUCACCCAUGUACAGGCUUUUUGUCGUCUUAUAAUAAAACCGAGGAUACG [Orlaorusti] (puzzle: Sensor v3, turn-off variant 1) as well?
label 2

Would you mind doing GUAGAGUAAGGAUAUGGAGAAUAGGAUAGAAUGGUUAGAAUCUAGAAGGUACAUGAGGAUCACCCAUGUAAUGU [Excluse me!!!! 9 - Jieux - Exclusion 4] (puzzle: Exclusion 4) as well?
label 0

Would you mind doing GAUUAUGCGAGCUUUAGGGACAUGAGGAUCACCCAUGUUCGUCUUAUUGGUCUGAGUGCACUAACAUACCUAAAUCU [JMF 31] (puzzle: Sensor v3, turn-off variant 1) as well?
label 1

Would you mind doing GAUUAUGCGAGCUUUAGGGACAUGAGGAUCACCCAUGUUCGUCUUAUUGGUCUGGGUACACUAACAUACCUAAAUCU [JMF 22] (puzzle: Sensor v3, turn-off variant 1) as well?
label 1

Would you mind doing UUCUUACAUGAGGAUCACCCAUGUCAGGAUAUCUCCUCACUGCGCUUGCGCAGUGGAUAGAGAAGGGACAGGCU [JL ViennaUCT Aner mod 3] (puzzle: Exclusion 1) as well?
label 1

Would you mind doing AAUAACUGAGGAUAUACUAUAAUAUGAAUAAAAUAAAUAAAACAUGAGGAUCACCCAUGUAGAAGGCAGAAUAA [JMF's Not so obvious solution 9] (puzzle: Exclusion 2) as well?
label 0

Would you mind doing UUUUAGGUAGGAUAUACAUUUUUUUUAUUAUCCUCAUUAUUACAUGAGGAUCACCCAUGUAGAAGGACCAUUUU [My Design] (puzzle: Exclusion 2) as well?
label 2

Would you mind doing AUCUAGUCAGGAUAUACGAACCGAUGAAUCGGACGGAACGAACAUGAGGAUCACCCAUGUAGAAGGGACACUCA [Candy Rainbow 2] (puzzle: Exclusion 2) as well?
label 2

Would you mind doing UUUUAACAUGAGGAUCACCCAUGUGAGGAUAUCGUAUUUUAUAUUAAUAUUAAUAAAACGAGAAGGCACAUUUU [JMF 9] (puzzle: Exclusion 1) as well?
label 0

---

# System: K4 kissing-loop RNA reporter;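 further: bound reporter read as fluorescence of individual clusters on recovered sequencing chips by microscopy, with normalized cluster intensities fitted with a binding model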
# protocol.text: apparent KD of K4 kissing-loop reporter; higher = weaker reporter binding
# run.parameters: Eterna round: R107; input ligand: FMN 200 uM
# apparent KD of K4 kissing-loop reporter per entry
Please state the figure in µM; there is no need to write the unit.

Solved entries:
>  <macromolecule.sequence>
AGCUAGUGAAACUAGUUUAAACUAGGUGAAGGAGCGAUCGAAAGAUCAGGUAGGUCGCACCUAACUGAGUGAUGUUCAGGAAAUA [KL-SSArg-A4]

>  <apparent KD of K4 kissing-loop reporter (µM)>
0.0671

$$$$
>  <macromolecule.sequence>
CGCGCCCAGCCGGAUACCAGUGACCCGCUGGGAACCGCGGGCCCAGAGUGAUGUUCGGGACACCCUUGGCAGCCGCCUGGGCGGG [#2 Same State - Theophylline B Attempt #16 (HarryS)]

>  <apparent KD of K4 kissing-loop reporter (µM)>
1.35

$$$$

We now examine a further sequence.
I would be grateful if you could share the reported apparent KD of K4 kissing-loop reporter for CGAUAUAAGAAUAUAUAUCUCUAUUCAGAAGGAGCGUGUUUGUACACAGGUAGGUCGCUGAAAUUUAAACUAGUGAUGUUAGACU [JR_SSArginiA_Sub002] .
1.17
